Known MIC90 of a selection of compounds
system: C. freundii; experiment: In vitro MIC, agar dilution; format: cell-based; conditions: Citrobacter freundii
Structures can show the parent of a compound that is named as a salt.
Supply the numeric figure in µg/mL, leaving out any unit text.

Below: 6 compounds and their reported MIC90.
compound: NC1CCN(c2c(F)cc3c(=O)c(C(=O)O)cn(C4CC4)c3c2Cl)C1 (stereo not shown)
measured: 0.12

compound: CN[C@@H]1CN(c2c(F)cn3c(=O)c(C(=O)O)cc(C4CC4)c3c2C)CC12CC2 [Example 1, hydrochloride]
measured: 0.25

compound: Cc1c(N2C[C@@H]3CCCN[C@@H]3C2)c(F)cn2c(=O)c(C(=O)O)cc(C3CC3)c12 [Example 4, hydrochloride]
measured: 0.25

compound: Cc1c(N2C[C@@H](N)C3(CC3)C2)c(F)cn2c(=O)c(C(=O)O)cc(C3CC3)c12 [Example 5, hydrochloride]
measured: 0.12

compound: C[C@@H]1CN(c2c(F)c(N)c3c(=O)c(C(=O)O)cn(C4CC4)c3c2F)C[C@H](C)N1
measured: 0.5

compound: O=C(O)c1cn(C2CC2)c2cc(N3CCNCC3)c(F)cc2c1=O
measured: 0.12

With those in mind, consider the next compound.
I'd like to know its MIC90. The compound in question is "N[C@@H]1[C@H]2CN(c3nc4c(cc3F)c(=O)c(C(=O)O)cn4-c3ccc(F)cc3F)C[C@@H]12"
0.5
